Source: ChEMBL document CHEMBL3259582

# Assayed system: Nuclear receptor ROR-beta (Homo sapiens)
# Sequence (Q92753 whole entry): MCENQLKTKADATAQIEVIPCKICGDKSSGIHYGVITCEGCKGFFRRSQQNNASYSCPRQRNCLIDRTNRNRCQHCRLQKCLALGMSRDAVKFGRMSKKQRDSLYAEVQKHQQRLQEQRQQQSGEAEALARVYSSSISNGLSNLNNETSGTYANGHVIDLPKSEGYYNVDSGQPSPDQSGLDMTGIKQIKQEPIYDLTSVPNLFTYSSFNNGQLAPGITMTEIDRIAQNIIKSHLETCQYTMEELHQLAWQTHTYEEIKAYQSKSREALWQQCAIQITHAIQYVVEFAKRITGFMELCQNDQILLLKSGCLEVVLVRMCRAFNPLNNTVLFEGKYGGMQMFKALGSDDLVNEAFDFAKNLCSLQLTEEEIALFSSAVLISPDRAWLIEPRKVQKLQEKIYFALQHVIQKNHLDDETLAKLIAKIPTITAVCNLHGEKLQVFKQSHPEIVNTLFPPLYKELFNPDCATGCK
# Method notes: Inverse agonist activity at human ROR-beta expressed in HEK293 cells after 16 hrs by luciferase reporter gene assay
# Format: cell-based
# Run parameters: read-out: IC50
pIC50: −log10 of the molar value.
Recorded pIC50 values for a group of compounds are listed next.

Would you please look over these solved cases?
cpd_smiles=CCCCn1c(=O)c2ccccc2c2cc(CO)ccc21 readout_type=pIC50 observed_measurement="< 4.70"
cpd_smiles=CCn1c(=O)c2ccccc2c2cc(C(O)(C(F)(F)F)C(F)(F)F)ccc21 readout_type=pIC50 observed_measurement="< 4.70"

For the compound CCCCn1c(=O)c2ccccc2c2cc(C(O)(C(F)(F)F)C(F)(F)F)cc(OC)c21 , give its measured pIC50 value.
< 5.00
